# IC50 values compiled below
system: Raji; assay: Cytotoxicity against human Raji cells after 72 hrs by MTT assay; format: functional, cell-based
Give the value in nM but do not write nM after it.

Measured IC50 of `C=CCc1nc(/C=C/C)c2ncn([C@@H]3O[C@@]4(CO)CO[C@@H]3[C@@H]4OCc3ccccc3)c2n1` : 5800

IC50 measured on `Nc1nc(Cl)nc2c1ncn2[C@H]1C[C@H](O)[C@@H](CO)O1` = 9

Looking up `O=C(c1ccccc1)N(C(=O)c1ccccc1)c1nc(N(C(=O)c2ccccc2)C(=O)c2ccccc2)c2ncn([C@@H]3O[C@@]4(CO)CO[C@@H]3[C@@H]4OCc3ccccc3)c2n1` , I found its IC50 recorded as 250
